measurement_target: Streptavidin (Streptomyces avidinii) (UniProt P22629)
Sequence (P22629 whole entry, looked up): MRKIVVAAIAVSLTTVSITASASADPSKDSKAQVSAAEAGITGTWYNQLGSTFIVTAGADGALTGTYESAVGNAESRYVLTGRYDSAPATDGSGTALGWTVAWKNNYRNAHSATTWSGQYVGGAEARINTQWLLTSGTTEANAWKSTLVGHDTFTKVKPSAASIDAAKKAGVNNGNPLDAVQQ
method_notes: streptavidin binders on small-molecule microarray, primary screen, artefact control for SMM compound annotation, biophysical, 635/667 nm fluorescence (AID 1147);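 note: signal reflects streptavidin binding to arrayed compounds as a control protein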
measurement_conditions: streptavidin binding, higher = more signal
quantity_kind: composite z-score
Number only, no unit.

Problem: Given the compound O=C1c2ccccc2[C@@]2(Cc3ccccc3N(C3CC3)C2=O)[C@H](c2ccc(CO)cc2)N1C1CCCCC1 , what is its reported composite z-score?
Solution: -0.885

Problem: Could you tell me which composite z-score is on file for COCCCNC(=O)[C@]1(Cc2ccccc2CN=[N+]=[N-])N=C(c2ccc(OCCCO)cc2)O[C@@H]1c1ccccc1 ?
Solution: 0.723

Problem: Quick one: composite z-score for O=C1OC[C@@H](c2ccccc2)N2CC(/C=C/c3ccccc3)=CC12 (some centres not stated) ?
Solution: -0.274

Problem: Reported composite z-score for C=CC1c2cc(O)c(OC)cc2CCN1Cc1sc2ccccc2c1Cl (configuration not stated) : what is it?
Solution: 1.57

Problem: Query: composite z-score; subject: COc1ccc([Si](C)(C)[C@H]2[C@H](CCn3cc([C@H](O)c4ccccc4)nn3)O[C@@]3(C(=O)N(Cc4ccc(N5CCC5=O)cc4)c4ccccc43)[C@@H]2C)cc1
Solution: -0.503

Problem: Data request, read-out composite z-score, for COc1ccc(C#Cc2ccc3c(c2)[C@]2(C(=O)N3)[C@H](C(=O)N3CCc4cc(OC)c(OC)cc4C3)[C@H]3C(=O)O[C@H](c4ccccc4)[C@H](c4ccccc4)N3[C@@H]2c2ccc(O)cc2)cc1
Solution: 1.04

Problem: Please look up its composite z-score: CN(C)C(=O)[C@]1(CCC(=O)OC(C)(C)C)N=C(c2ccc(OCCCO)cc2)O[C@@H]1c1ccccc1
Solution: -0.092

* * *

method_notes: A549 lung cancer cell viability effects, profiling panel, resazurin fluorescence, 24 h, PK04 Diversity Set (AID 1171); note: test concentration not given here
measurement_conditions: higher = more signal, called active from +8 up or from −8 down
Calls of active or inactive are those of the source.
quantity_kind: z-score

Problem: For the molecule C=C(C(=O)CC[C@H](OC(=O)c1cccnc1)c1cccc(OCCO)c1)C(C)C , what z-score is on record?
Solution: 0.371 (inactive)

Problem: Fill in the blank: the reported z-score of CCCC=C(CCC)[C@@H](NP(=O)(c1ccccc1)c1ccccc1)c1ccc(C(F)(F)F)cc1 is ____.
Solution: 0.472 (inactive)

Problem: Would you mind telling me what z-score value was observed for COC(=O)[C@@]1(Cc2ccc(F)cc2)[C@H]2c3cc(C(=O)N4CCCC4)n(CCc4c[nH]c5ccc(OC)cc45)c3C[C@H]2CN1C(=O)c1ccccc1 ?
Solution: -1.63 (inactive)

Problem: Need z-score, item CCOC(=O)C[C@H]1[C@H](OC(=O)c2ccc(C(=O)c3ccccc3)cc2)[C@@H](NC(=O)c2ccc3ccccc3c2)c2cc(OCCCO)ccc2N1C(=O)c1ccccc1
Solution: -0.412 (inactive)

Problem: // lookup z-score for CC(C)(C)OC(=O)CC[C@]1(C(=O)NCCN2CCOCC2)N=C(c2ccc(OCCCO)cc2)O[C@H]1c1ccccc1N=[N+]=[N-]
Solution: -0.201 (inactive)

Problem: Dear colleague, I am looking for the recorded z-score of the following molecule: COC(=O)[C@@]1(Cc2ccc(OC)cc2)[C@H]2c3cc(C(=O)N(C)C)n(CCc4c[nH]c5ccc(O)cc45)c3C[C@H]2CN1C(=O)c1ccccc1
Solution: -1.33 (inactive)

Problem: // lookup z-score for O=C1C2C=CC(C(O)c3cc(C(F)(F)F)cc(C(F)(F)F)c3)N(Nc3ccc([N+](=O)[O-])cc3)C2C(=O)N1c1ccccc1 (centres undefined)
Solution: -0.0362 (inactive)

Problem: Quick one: z-score of CC(C)N1CC=CC23O[C@@H]4C=CCOC(=O)[C@@H]4[C@H]2C(=O)N(C(C)CO)[C@@H]3C1=O (some centres undefined) ?
Solution: 0.226 (inactive)

Problem: // returns reported z-score for input COc1cc(CO)cc(I)c1O[C@H]1C=C(C(=O)NCCO)C[C@@H](NCc2ccccc2F)[C@@H]1O
Solution: 0.106 (inactive)

Problem: z-score for CN(C)C(=O)[C@@]1(Cc2ccccc2N=[N+]=[N-])COC(c2ccc(OCCCO)cc2)=N1 ?
Solution: 0.325 (inactive)

Problem: // lookup z-score for NC(=O)N1C(=O)C2C(C1=O)C1C=C(CCCO)C2C(c2cccs2)N1Cc1cc2c(cc1Br)OCO2 (centres undefined)
Solution: 0.514 (inactive)

Problem: Reported z-score for CCOC(=O)C[C@H]1[C@H](OC(=O)Cc2ccc3c(c2)OCO3)[C@@H](NC(=O)C2CCCCC2)c2cc(OCCCO)ccc2N1C(=O)c1ccc2ccccc2n1 : what is it?
Solution: 0.125 (inactive)

Problem: Entry O=C1NC(=O)C2C1C=CC(C(O)c1ccc(Br)cc1)N2Nc1ccccn1 (centres undefined) : reported z-score = ?
Solution: -1.58 (inactive)

Problem: z-score for C=CCOC(=O)[C@@H]1[C@H]2C(=O)O[C@H](c3ccccc3)[C@H](c3ccccc3)N2[C@H](c2ccc(OCCOC(=O)[C@H]3C[C@H]4C(=O)N[C@@H](CCCCNC(C)=O)C(=O)N4[C@H]3c3cccc(OCCO)c3)cc2)[C@@]12C(=O)Nc1ccc(I)cc12 ?
Solution: 0.304 (inactive)

* * *

method_notes: anti-His antibody binders, primary screen, artefact control for SMM control protein annotation, biochemical, small-molecule microarray, 635 nm fluorescence (AID 1128);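 note: score merges feature fluorescence with signal-to-noise for each printed compound spot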
measurement_conditions: anti-His Alexa647 antibody binding, higher = more signal
Would you please tag the item class 1 when its composite z-score is 0.08 or above, and class 0 when it is below?

Problem: Is reported composite z-score greater than or equal to 0.08 here: CO[C@H]1O[C@H](CO)[C@@H](OC(=O)Nc2ccc(Oc3ccccc3)cc2)[C@H](OC(=O)Nc2ccccc2-c2ccccc2)[C@@H]1OC(=O)Nc1ccccc1-c1ccccc1
Solution: class 1

Problem: Given COc1ccc([Si](C)(C)[C@H]2[C@H](CC(=O)N3Cc4ccccc4C[C@H]3CO)O[C@@]3(C(=O)N(Cc4cccc(N5CCCCC5=O)c4)c4ccccc43)[C@@H]2C)cc1 , state whether its composite z-score is at least 0.08.
Solution: class 1

Problem: Given CC(C)NC(=O)[C@@]1(C)c2ccccc2C(=O)N(C(C)C)[C@H]1c1ccc(CO)cc1 , state whether its composite z-score is at least 0.08.
Solution: class 0

Problem: Given O=C1NC(=O)C2C1C=CC(C(O)c1c(F)cccc1Cl)N2Nc1ccccn1 (configuration not stated) , state whether its composite z-score is at least 0.08.
Solution: class 1

Problem: Given O=C1O[C@@H](c2ccccc2)[C@@H](c2ccccc2)N2[C@@H](c3ccccc3OCCO)[C@]3(C(=O)Nc4ccc(C#CC5=CCCCC5)cc43)[C@@H](C(=O)NC[C@H](O)c3ccccc3)[C@H]12 , state whether its composite z-score is at least 0.08.
Solution: class 1

Problem: Hi team, for C=CC[C@@H](OC(=O)Nc1ccc(OC)cc1)c1ccc(OCCO)cc1 , is the recorded composite z-score at or above 0.08?
Solution: class 0

* * *

method_notes: fission yeast growth modulation, primary screen, strain 972, OD600, 24 h, no modulator (AID 1090);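 note: basal condition with compound alone and no growth modifier present; test concentration not given here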
measurement_conditions: S. pombe 972 growth, higher = more signal, called active from +8 up or from −8 down
Would you mind telling me the reported z-score of each entry?
Respond using a number only.

Problem: State the recorded z-score for this entry: CCCCC(=C=CC[C@@H](O)c1ccc(OCCO)cc1)C[C@@H](O)COCc1ccccc1
Solution: -2.39

Problem: Can you share its z-score? I mean this molecule: C[C@@H]1ON(c2ccc(C(=O)OC(C)(C)C)cc2)[C@H](c2ccc(Br)cc2)[C@H]1C(=O)N1C(=O)OC[C@H]1Cc1ccccc1
Solution: 0.716

Problem: Can you look up the measured z-score of CC(=O)N1Cc2ccccc2C[C@]2(N=C(c3ccc(OCCCO)cc3)O[C@@H]2c2ccccc2)C1=O for me?
Solution: -2.91

Problem: Which z-score is reported for this molecule? COc1ccc([Si](C)(C)[C@H]2[C@H](CCO)O[C@@]3(C(=O)N(Cc4cccc(N5CCCCC5=O)c4)c4ccccc43)[C@@H]2C)cc1
Solution: -1.99

* * *

method_notes: cell viability in Huh7 cells, primary screen, cytotoxicity control for HCV replication inhibitor project, CellTiter-Glo luminescence, basal, 48 h (AID 1143);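 note: Huh7 hepatoma cells carrying a hepatitis C replication reporter with no stimulus; test concentration not given here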
measurement_conditions: Huh7 HCV replicon, higher = more signal, called active from +8 up or from −8 down
Note to self: class = bucket of z-score, per group 1 (below -3), group 2 (-3 to below -0.4), group 3 (-0.4 or more)

Problem: Which band does COc1ccc([Si](C)(C)[C@@H]2[C@@H](CCO)O[C@]3(C(=O)N(Cc4cccc(N5C(=O)c6ccccc6Oc6ccccc65)c4)c4ccccc43)[C@H]2C)cc1 fall in?
Solution: group 1

Problem: Hi, small favor: classify C=C(CCCC)/C(=C/C[C@@H](OC(C)=O)c1ccc(CO)o1)c1cc(C(=O)OC)ccc1OC by its z-score when you get a moment.
Solution: group 3

Problem: GET /class?item= C=C(COC)/C(=C/C[C@@H](OC(=O)c1ccncc1)c1cccc(OCCO)c1)c1cnc2ccccc2c1
Solution: group 1

Problem: Textbook exercise: identify the category of the compound given here, Cc1c(NC(=O)/C(C#N)=C/C=C/c2ccc(N(C)C)cc2)c(=O)n(-c2ccccc2)n1C , according to its measured value.
Solution: group 2

Problem: Which class is correct for the following compound? C=C1C2CC3C(=C4C(CO[C@@H]4[C@H]4CCCN4S(=O)(=O)c4ccccc4[N+](=O)[O-])C4C(=O)N(C)C(=O)C34)CC2C(=O)N1C (some centres undefined)
Solution: group 3

Problem: Using the reported z-score, which band applies to C=CCN1C(=O)[C@]2(CC=C)N=C(c3ccc(OCCCO)cc3)O[C@@H]2c2ccccc21 ?
Solution: group 1

Problem: Given C[C@H]1C2=C3C(CC[C@H]4C(OCc5ccc(F)cc5C(F)(F)F)OC[C@](C)([C@@H]34)N(C(=O)OC(C)(C)C)C2)C(CO)C1CO (some centres undefined) , name the class its z-score places it in.
Solution: group 2

Problem: Dear colleague, I would appreciate it if you could identify the bin for COC(=O)[C@@]1(Cc2ccccc2)[C@H]2c3cc(C(=O)N4CCCC4)n(Cc4ccsc4Br)c3C[C@H]2CN1C(=O)c1ccccc1 and reply at your convenience.
Solution: group 1

Problem: State the class of the compound shown: CCOC(=O)C[C@H]1[C@H](OC(=O)c2ccccc2-c2ccccc2)[C@@H](NC(=O)c2ccc3ccccc3n2)c2cc(OCCCO)ccc2N1C(=O)c1ccc2ccccc2n1
Solution: group 2

Problem: Where would C=CCOC(=O)[C@H]1[C@@H]2C(=O)O[C@@H](c3ccccc3)[C@@H](c3ccccc3)N2[C@@H](c2ccc(OCCOC(=O)[C@H]3C[C@H]4C(=O)N[C@@H](Cc5ccccc5)C(=O)N4[C@H]3c3cccc(OCCO)c3)cc2)[C@]12C(=O)Nc1ccc(I)cc12 land among the classes by reported z-score?
Solution: group 2

Problem: # bin lookup: classify CC=CC(O)C1C=CC2C(=O)N(c3ccccc3)C(=O)C2N1Nc1ccc([N+](=O)[O-])cc1 (centres undefined) by its z-score
Solution: group 3

Problem: Field: class (z-score) — entry: C=CC[C@]1(C(=O)N(C)C)N=C(c2ccc(OCCCO)cc2)O[C@H]1c1ccccc1N=[N+]=[N-]
Solution: group 2

Problem: Consider O=C(O)[C@H](Cc1ccccc1)n1cc(-c2ccccn2)nn1 . To which z-score class does it belong?
Solution: group 2
